- Protocol Description: Single-dose PK and bioavailability of ZB716 in rats
- Format: in vivo
- Settings: female, Sprague Dawley, rat, plasma; single dose, IV 2 mg/kg/day, F; read-out: Tmax (median)
Observation Type: Tmax (min)
Numeric only. Scale: min

For this compound ( C[C@]12CC[C@@H]3c4ccc(B(O)O)cc4C[C@@H](CCCCCCCCC[S+]([O-])CCCC(F)(F)C(F)(F)F)[C@H]3[C@@H]1CC[C@@H]2O (stereo partly shown) [ZB716, fulvestrant-3-boronic acid] ), measured Tmax is 5

----------
- System: CYP2B6
- Protocol Description: CYP induction (enzyme activity) in cryopreserved human hepatocytes, CYP2B6
- Settings: human, plated cryopreserved human hepatocytes, Fold Induction, donor two, 30 µM
Observation Type: fold induction at 72 h, 30 µM
When you answer, write just the number.

Observed fold induction at 72 h, 30 µM on CYP2B6, entry CCOC(=O)c1ncn2c1CN(C)C(=O)c1cc(F)ccc1-2 [Flumazenil, flumazenil, reference compound] , equals 0.789
